Test system: NIH3T3
assay.name: Cytotoxic Profiling of Annotated Libraries Using Quantitative High-Throughput Screening (AID 1296008); also: % is scaled to controls: 0 for no effect and ±100 for the full control effect
settings: Five cell lines viability, CellTiter-Glo ATP luminescence, 48-72 h; stronger effect = lower value
Inconclusive results are not listed. Starred links: 1 amine or outer side, 2 acyl side, 3 side chain; linkers in the order of their positions; H or OH if unused. Positions of bridges follow the written chain, without caps; N, C: chain ends. Non-standard residues stand in square brackets, D forms with d. Residues, ends and D or L forms follow the SMILES beside them. Chains are numbered I, II in the order given. Actinocin(9to1) = Cc1c2oc3c(C)ccc(C(=O)[*:1])c3nc-2c(C(=O)[*:2])c(N)c1=O; NMeV = CN[CH](C(=O)O)C(C)C; Sar = CNCC(=O)O
measured.metric: max response (%)

# compound, assay.value
records = [
    ("CON=C(C(=O)N[C@@H]1C(=O)N2C(C(=O)O)=C(CSC(=O)c3ccco3)CS[C@H]12)c1csc(N)n1", -6.35),
    ("O=C(O)CCCCCC(=O)NN=C1CCCC1", 3.56),
    ("C=Cc1c(C)c2cc3nc(cc4[nH]c(cc5nc(cc1[nH]2)C(C)=C5CCC(=O)O)c(CCC(=O)OC)c4C)[C@@]1(C)C3=CC=C(C(=O)OC)[C@H]1C(=O)OC", 4.13),
    ("O=S(=O)(O)CCSSCCS(=O)(=O)O", -4.2),
    ("Cc1c2oc3c(C)ccc(C(=O)NC4C(=O)NC(C(C)C)C(=O)N5CCCC5C(=O)N(C)CC(=O)N(C)C(C(C)C)C(=O)OC4C)c3nc-2c(C(=O)NC2C(=O)NC(C(C)C)C(=O)N3CCCC3C(=O)N(C)CC(=O)N(C)C(C(C)C)C(=O)OC2C)c(N)c1=O (configuration not stated) (I: TVP[Sar][NMeV] / II: TVP[Sar][NMeV]; ester I:1-I:C, II:1-II:C; linker I:N-II:N via Actinocin(9to1); configuration not given here)", -100),
    ("C#C[C@]1(O)CC[C@@H]2[C@@H]3CCc4cc(O)ccc4[C@H]3CC[C@@]21C", -5.15),
    ("CC1(C)O[C@@H]2C[C@H]3[C@@H]4CCC5=CC(=O)C=C[C@]5(C)[C@@H]4[C@@H](O)C[C@]3(C)[C@]2(C(=O)CO)O1", -5.4),
]

Reference for the values: PubChem BioAssay (NCATS)
